test system: D121 lung cancer cells; experiment: D121 lung cancer immunotherapy model; details: single agent; tumor CD8+ T cells among CD45-positive cells, flow cytometry
property name: CD8: CD45 (%)
Answer format: numeric, % implied, no suffix.

In one line, give reported CD8: CD45 (%) of the entry CC(NC(=O)C(C)NC(=O)[C@H](O)[C@H](O)[C@@H](O[C@@H]1O[C@H](CO)[C@H](O)[C@H](O)[C@H]1O)[C@H](O)CO)C(=O)NC(CC(N)=O)C(=O)Nc1ccc(COC(=O)N2CC(C)(C)c3ccc(NC(=O)c4cccnc4NCc4ccncc4)cc32)cc1 (stereo partly drawn) .
14.4

In one line, give reported CD8: CD45 (%) of the entry CNC(=O)c1cc(Oc2ccc(NC(=O)Nc3ccc(Cl)c(C(F)(F)F)c3)cc2)ccn1 [Sorafenib, reference compound] .
6.4

In one line, give reported CD8: CD45 (%) of the entry C[C@H](N=C[C@H](O)[C@@H](O)[C@H](O)[C@H](O)CO)C(=O)N[C@@H](C)C(=O)N[C@@H](CC(N)=O)C(=O)Nc1ccc(COC(=O)N(C)CCNC(=O)c2cc(Oc3ccc(NC(=O)Nc4ccc(Cl)c(C(F)(F)F)c4)cc3)ccn2)cc1 [Compound C4, Glucose-AAN-PABC-Compound a, reference compound] .
10.7

In one line, give reported CD8: CD45 (%) of the entry COc1cccc2c1C(=O)c1c(O)c3c(c(O)c1C2=O)C[C@](O)(C(=O)CO)CC3OC1C[C@H](NC(=O)OCc2ccc(NC(=O)C(CC(N)=O)NC(=O)C(C)NC(=O)C(C)NC(=O)[C@H](O)[C@H](O)[C@@H](O[C@@H]3O[C@H](CO)[C@H](O)[C@H](O)[C@H]3O)[C@H](O)CO)cc2)[C@H](O)[C@H](C)O1 (stereo partly drawn) .
14.6

In one line, give reported CD8: CD45 (%) of the entry CC(NC(=O)C(C)NC(=O)[C@H](O)[C@H](O)[C@@H](O[C@@H]1O[C@H](CO)[C@H](O)[C@H](O)[C@H]1O)[C@H](O)CO)C(=O)NC(CC(N)=O)C(=O)Nc1ccc(COC(=O)Nc2nccc(-c3sc(C(C)(C)C)nc3-c3cccc(NS(=O)(=O)c4c(F)cccc4F)c3F)n2)cc1 (stereo partly drawn) .
15.8

In one line, give reported CD8: CD45 (%) of the entry CC(NC(=O)C(C)NC(=O)[C@H](O)[C@H](O)[C@@H](O[C@@H]1O[C@H](CO)[C@H](O)[C@H](O)[C@H]1O)[C@H](O)CO)C(=O)NC(CC(N)=O)C(=O)Nc1ccc(COC(=O)N(C)CCNC(=O)c2cc(Oc3ccc(NC(=O)Nc4ccc(Cl)c(C(F)(F)F)c4)cc3)ccn2)cc1 (stereo partly drawn) .
11.0

In one line, give reported CD8: CD45 (%) of the entry CC(NC(=O)C(C)NC(=O)[C@H](O)[C@H](O)[C@@H](O[C@@H]1O[C@H](CO)[C@H](O)[C@H](O)[C@H]1O)[C@H](O)CO)C(=O)NC(CC(N)=O)C(=O)Nc1ccc(COC(=O)N(C)CCNC(=O)c2cc(Oc3ccc(NC(=O)Nc4ccc(Cl)c(C(F)(F)F)c4)c(F)c3)ccn2)cc1 (stereo partly drawn) .
10.5

In one line, give reported CD8: CD45 (%) of the entry COc1cccc2c1C(=O)c1c(O)c3c(c(O)c1C2=O)C[C@@](O)(C(=O)CO)C[C@@H]3O[C@H]1C[C@H](N)[C@H](O)[C@H](C)O1 [Adriamycin, reference compound] .
5.4

In one line, give reported CD8: CD45 (%) of the entry CC(NC(=O)C(C)NC(=O)[C@H](O)[C@H](O)[C@@H](O[C@@H]1O[C@H](CO)[C@H](O)[C@H](O)[C@H]1O)[C@H](O)CO)C(=O)NC(CC(N)=O)C(=O)Nc1ccc(COC(=O)Nc2c(-c3nc4ccc(N5CCN(C)CC5)cc4[nH]3)c(=O)[nH]c3cccc(F)c23)cc1 (stereo partly drawn) .
15.3
